Where these numbers come from: patent US20160310583A1

system: T1, HLA-A*02:01 (human)
T1 construct: whole, on cells; MHC class I molecule, empty until peptide is added; detected with FITC anti-HLA-A02 antibody BB7.2
protocol-details: MHC class I stabilization on T2-A24 cells, flow cytometry, 100 ug/mL peptide
result-type: MFI (solvent ratio)

Consider the following illustrative entries.
- binder: "FLAEEEINYI [FAM83B-derived peptide F55_10]"
  test-result: "3.5 ratio to solvent"
- binder: "KVIALVMDI [FAM83B-derived peptide F148_9]"
  test-result: "2.4 ratio to solvent"
- binder: "HLLTIKETI [FAM83B-derived peptide F131_9]"
  test-result: "1.5 ratio to solvent"

Request: Name the reported MFI (solvent ratio) value associated with the binder FLAEEEINYIL [FAM83B-derived peptide F55_11]
Result: 3.6 ratio to solvent

Request: Name the reported MFI (solvent ratio) value associated with the binder NYILKNVQKV [FAM83B-derived peptide F62_10]
Result: 2.9 ratio to solvent

Request: Name the reported MFI (solvent ratio) value associated with the binder SYQPNENKF (also called FAM83B peptide) [FAM83B-derived peptide SF_9]
Result: 1 ratio to solvent

Request: Name the reported MFI (solvent ratio) value associated with the binder ALVMDIFTDV [FAM83B-derived peptide F151_10]
Result: 3.4 ratio to solvent
